Experiment: qHTS assay to test for compound auto fluorescence at 460 nm (blue) in HEK293 cells (AID 720678)
Conditions: blue autofluorescence 405/460 nm; series mostly up to 91.3 µM
Text: National Center for Advancing Translational Sciences [NCATS] NIH Chemical Genomics Center [NCGC] U.S. Environmental Protection Agency [EPA] National Institutes of Environmental Health Sciences [NIEHS] National Toxicology Program [NTP] U.S. Food and Drug Administration [FDA] Compound auto fluorescence often interferes with screening of the compound library against various biological targets and signaling pathways. Some of these compounds may have fluorophoric properties. […]
Activity calls are given as the source filed them. Calls follow the shape of the dose curve; as a rule, active = well fitted curve in the direction sought with a large enough effect in the repeat runs; inconclusive = weak or mixed curves; inactive = flat fitted curve, though single readings scatter.
PROPERTY_NAME: fluorescence, % of triamterene

COMPOUND: Oc1ccc2c(c1)OCO2
fluorescence, % of triamterene: inactive

COMPOUND: COC(Cc1ccccc1)OC
fluorescence, % of triamterene: inactive

COMPOUND: Cc1ccc(C(C)c2ccc(C)c(C)c2)cc1C
fluorescence, % of triamterene: inactive

COMPOUND: CC/C(=C\C(=N/O)C(N)=O)C(C)[N+](=O)[O-] (stereo unspecified)
fluorescence, % of triamterene: inactive

COMPOUND: Nc1nc(CC(=O)O)cs1
fluorescence, % of triamterene: inactive

GET /values?readout=fluorescence, % of triamterene&item= CCCC[C@H]1CN(CC2CCOCC2)C(=O)OC12CCN(C1(C)CCN(C(=O)c3c(C)ncnc3C)CC1)CC2
inactive

Entry CN1CCC(=C2c3ccccc3CCc3sccc32)CC1 : reported fluorescence, % of triamterene = ?
inactive

I am curious: what fluorescence, % of triamterene value has been reported for CCN1CCC[C@H]1CNC(=O)c1c(OC)ccc(Br)c1OC ?
inactive

Could you tell me which fluorescence, % of triamterene is on file for CC(C)(C)c1cc(CCC(=O)OCC(COC(=O)CCc2cc(C(C)(C)C)c(O)c(C(C)(C)C)c2)(COC(=O)CCc2cc(C(C)(C)C)c(O)c(C(C)(C)C)c2)COC(=O)CCc2cc(C(C)(C)C)c(O)c(C(C)(C)C)c2)cc(C(C)(C)C)c1O ?
inactive

Any idea what fluorescence, % of triamterene was measured for Oc1ccc(Sc2ccc(O)cc2)cc1 ?
inactive

# input compound: CCC(=O)OC(C)(C)C1CC=C(C)CC1 (stereo unspecified) ; wanted: its fluorescence, % of triamterene
inactive
